Tested on: 695427-040-R-J1-PDC complex spheroids, viability percent T/C;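 further: spheroids exposed to compounds for seven days before readout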
Experiment: Anticancer human tumor 695427-040-R-J1-PDC patient-derived colon adenocarcinoma cell line growth inhibition [GQUAD]
Settings: second compound 1 µM; first compound 0.00999 µM; active compounds read low
Threshold-based label: viability, T/C under 90% gives True, viability, T/C not under 90% gives False.

Consider the worked cases shown below.
Cc1[nH]c2ccccc2c1CCNCc1ccc(/C=C/C(=O)NO)cc1 + Cc1cnc(CNC(=O)c2c(=O)c3ccc(N4CCCN(C)CC4)nc3n3c2sc2ccccc23)cn1	True
Cc1[nH]c2ccccc2c1CCNCc1ccc(/C=C/C(=O)NO)cc1 + CN(C)c1ccc(Nc2c3ccc(NC(=O)CCN4CCCC4)cc3nc3cc(NC(=O)CCN4CCCC4)ccc23)cc1	False
Cc1[nH]c2ccccc2c1CCNCc1ccc(/C=C/C(=O)NO)cc1 + Cc1[nH]c2ccc(F)cc2c1-c1nc2c3cccnc3c3ncccc3c2[nH]1	False

Moving on to another molecule below.
(Q) Please determine if CC[C@@]1(O)C(=O)OCc2c1cc1n(c2=O)Cc2cc3c(CN(C)C)c(O)ccc3nc2-1 + CN(C)c1ccc(Nc2c3ccc(NC(=O)CCN4CCCC4)cc3nc3cc(NC(=O)CCN4CCCC4)ccc23)cc1 is below 90% in terms of viability, T/C.
(A) False
